assayedSystem: GST-LXRβ ligand-binding domain (Homo sapiens, UniProt P55055, INS174Q)
Construct: amino acids 156-461; NP009052
Sequence (P55055 with tags, fused parts or gaps INS174Q limits assumed): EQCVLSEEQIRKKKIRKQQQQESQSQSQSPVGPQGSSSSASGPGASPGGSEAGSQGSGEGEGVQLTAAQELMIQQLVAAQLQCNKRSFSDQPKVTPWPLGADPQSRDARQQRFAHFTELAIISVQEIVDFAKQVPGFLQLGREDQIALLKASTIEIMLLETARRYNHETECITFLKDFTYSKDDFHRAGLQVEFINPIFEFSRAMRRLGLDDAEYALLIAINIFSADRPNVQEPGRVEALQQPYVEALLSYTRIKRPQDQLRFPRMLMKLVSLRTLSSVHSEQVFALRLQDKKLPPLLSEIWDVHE
procedureSummary: TR-FRETβ activity assay (NCoA3 coactivator peptide recruitment)
testSettings: 1 μM 24(S)-25-epoxycholesterol as prestimulating agonist; inverse agonist unless *
The entries below are paired with their reported EC50.

Record excerpt, results attached:
compoundstructurestring=Cc1ccc2ccccc2c1C(=O)N(Cc1ccc(C(F)(F)F)o1)Cc1ncc(-c2cccc(C(C)(C)C(=O)O)c2)cc1Cl observedresult="< 100 nM"
compoundstructurestring=Cc1cc(C)c(CN(Cc2ccc(-c3cccc(C(C)(C)C(=O)O)c3)cc2)Cc2ccc(C(F)(F)F)o2)c2c1CCC2 observedresult="100 to 1000 nM"
compoundstructurestring=Cc1cc(C)c(C(=O)N(Cc2ccc(-c3cccc(S(=O)(=O)CC(=O)O)c3)cc2)Cc2ccc(C(F)(F)F)o2)c(C)c1 observedresult="1000 to 10000 nM"
compoundstructurestring=Cc1ccc2ccccc2c1C(=O)N(Cc1ccc(-c2cccc(S(=O)(=O)CC(=O)O)c2)cc1)Cc1ccc(C(F)(F)F)[nH]1 observedresult="1000 to 10000 nM"
compoundstructurestring=COc1cc(-c2cccc(S(=O)(=O)CC(=O)O)c2)ccc1CN(Cc1ccc(C(F)(F)F)o1)Cc1c(C)cc(C)cc1C observedresult="1000 to 10000 nM"

So what does the record say about EC50 for COc1cc(-c2cccc(C(C)(C)C(=O)O)c2)ccc1CN(Cc1ccc(C(F)(F)F)o1)C(=O)c1c(C)c(C)nc2ccccc12 ?
100 to 1000 nM

Okay, and Cc1ccc2ccccc2c1C(=O)N(Cc1ccc(-c2cc(F)cc(C3(C(=O)O)CC3)c2)cc1)Cc1ccc(C(F)(F)F)o1 ?
100 to 1000 nM

Okay, and Cc1cc(C)c(C(=O)N(Cc2ccc(-c3cccc(OCC(=O)O)c3)cc2)Cc2ccc(C(F)(F)F)o2)c(C)c1 ?
> 10000 nM

Okay, and COc1cc(-c2ccc(CO)c(C(C)(C)C(=O)[O-])c2)ccc1CN(Cc1ccc(C(F)(F)F)o1)Cc1c(C)ccc2ccccc12.[Na+] ?
1000 to 10000 nM

Okay, and O=C(O)CS(=O)(=O)c1cccc(-c2ccc(CN(Cc3ccc(C(F)(F)F)o3)Cc3cccc4ccccc34)cc2)c1 ?
1000 to 10000 nM

Okay, and Cc1ccc2ccccc2c1C(=O)N(Cc1ccc(C(F)(F)F)o1)Cc1c(F)cc(-c2cccc(C(C)(C)C(=O)O)c2)cc1Cl ?
< 100 nM

Okay, and Cc1ccc2ccccc2c1C(=O)N(Cc1ccc(-c2cc(F)c(CO)c(S(=O)(=O)CC(=O)O)c2)cc1)Cc1ccc(C(F)(F)F)o1 ?
1000 to 10000 nM

Okay, and Cc1ccc2ccccc2c1C(=O)N(Cc1ccc(C(F)(F)F)o1)Cc1ccc(-c2cncc(S(=O)(=O)CC(=O)O)c2)cc1C(F)(F)F ?
1000 to 10000 nM

Okay, and Cc1cc(C)c(C(=O)N(Cc2ccc(-c3cc(F)c(CO)c(S(=O)(=O)CC(=O)O)c3)cc2)Cc2ccc(C(F)(F)F)o2)c(C)c1 ?
1000 to 10000 nM
